- system-under-test: Retinal dehydrogenase 2 (Homo sapiens) (UniProt O94788)
- measurement-notes: qHTS for Inhibitors of the Aldehyde Dehydrogenase Family (ALDH1A2) Confirmation screens (AID 2061314); also: nearly all actives have a fitted effect of over 65% in size
- conditions: ALDH1A2 enzyme inhibition qHTS confirmation; series mostly up to 45.9 µM
Inconclusive results are not listed. Active and inactive are the calls of the source. Calls follow the shape of the dose curve; as a rule, active = well fitted inhibition curve with a large enough effect; inconclusive = small, poorly fitted or top-dose-only effect; inactive = no such curve, though single readings can be large or run the other way.
Outcomes: active, inactive

| compound | system-under-test | class-name |
| --- | --- | --- |
| Cc1ccc(NS(=O)(=O)c2cc3c(cc2N[C@@H](C)CO)NC(=O)CC3)cc1Cl | Retinal dehydrogenase 2 (Homo sapiens) (UniProt O94788) | active |
| NC(=O)C1CCN(c2nc(-c3ccc(N4CCCCC4)nc3)cs2)CC1 | Retinal dehydrogenase 2 (Homo sapiens) (UniProt O94788) | active |
| Cn1nc(C(=O)N2CCOCCNC(=O)CC2)c2ccccc21 | Retinal dehydrogenase 2 (Homo sapiens) (UniProt O94788) | inactive |
| CC(=O)N1CCN(c2ccc(NCc3cccc(C)c3)cc2)CC1 | Retinal dehydrogenase 2 (Homo sapiens) (UniProt O94788) | active |
| CC(C)Cn1c(=O)c(C(=O)NCc2cccs2)nc2cccnc21 | Retinal dehydrogenase 2 (Homo sapiens) (UniProt O94788) | inactive |
| CC(C)(O)c1ccccc1CC[C@H](SCC1(CC(=O)O)CC1)c1cccc(/C=C/c2ccc3ccc(Cl)cc3n2)c1 | Retinal dehydrogenase 2 (Homo sapiens) (UniProt O94788) | inactive |
| N#CN1CCC(NS(=O)(=O)c2ccc(C(F)(F)F)cc2)CC1 | Retinal dehydrogenase 2 (Homo sapiens) (UniProt O94788) | active |
| NC(=O)C1CCN(c2ncc(-c3ccc4c(c3)OCO4)s2)CC1 | Retinal dehydrogenase 2 (Homo sapiens) (UniProt O94788) | inactive |
| C/C=C/c1ccc2oc(-c3ccc(O)c(OC)c3)c(C)c2c1 | Retinal dehydrogenase 2 (Homo sapiens) (UniProt O94788) | active |
| COc1ccc(-c2nocc2CCC(=O)NCCc2ccc(S(N)(=O)=O)cc2)cc1 | Retinal dehydrogenase 2 (Homo sapiens) (UniProt O94788) | inactive |
